meta.source: patent US9567322B2

Reported Maximum % activity by item:
# measured on: F508delCFTR (Homo sapiens, UniProt P13569, DEL508-508)
# Construct: expressed in transfected cells; host or cells: CFBE41o- (CFBE41o-F508delCFTR-HRP), doxycycline-inducible
# Sequence (P13569 with tags, fused parts or gaps DEL508-508): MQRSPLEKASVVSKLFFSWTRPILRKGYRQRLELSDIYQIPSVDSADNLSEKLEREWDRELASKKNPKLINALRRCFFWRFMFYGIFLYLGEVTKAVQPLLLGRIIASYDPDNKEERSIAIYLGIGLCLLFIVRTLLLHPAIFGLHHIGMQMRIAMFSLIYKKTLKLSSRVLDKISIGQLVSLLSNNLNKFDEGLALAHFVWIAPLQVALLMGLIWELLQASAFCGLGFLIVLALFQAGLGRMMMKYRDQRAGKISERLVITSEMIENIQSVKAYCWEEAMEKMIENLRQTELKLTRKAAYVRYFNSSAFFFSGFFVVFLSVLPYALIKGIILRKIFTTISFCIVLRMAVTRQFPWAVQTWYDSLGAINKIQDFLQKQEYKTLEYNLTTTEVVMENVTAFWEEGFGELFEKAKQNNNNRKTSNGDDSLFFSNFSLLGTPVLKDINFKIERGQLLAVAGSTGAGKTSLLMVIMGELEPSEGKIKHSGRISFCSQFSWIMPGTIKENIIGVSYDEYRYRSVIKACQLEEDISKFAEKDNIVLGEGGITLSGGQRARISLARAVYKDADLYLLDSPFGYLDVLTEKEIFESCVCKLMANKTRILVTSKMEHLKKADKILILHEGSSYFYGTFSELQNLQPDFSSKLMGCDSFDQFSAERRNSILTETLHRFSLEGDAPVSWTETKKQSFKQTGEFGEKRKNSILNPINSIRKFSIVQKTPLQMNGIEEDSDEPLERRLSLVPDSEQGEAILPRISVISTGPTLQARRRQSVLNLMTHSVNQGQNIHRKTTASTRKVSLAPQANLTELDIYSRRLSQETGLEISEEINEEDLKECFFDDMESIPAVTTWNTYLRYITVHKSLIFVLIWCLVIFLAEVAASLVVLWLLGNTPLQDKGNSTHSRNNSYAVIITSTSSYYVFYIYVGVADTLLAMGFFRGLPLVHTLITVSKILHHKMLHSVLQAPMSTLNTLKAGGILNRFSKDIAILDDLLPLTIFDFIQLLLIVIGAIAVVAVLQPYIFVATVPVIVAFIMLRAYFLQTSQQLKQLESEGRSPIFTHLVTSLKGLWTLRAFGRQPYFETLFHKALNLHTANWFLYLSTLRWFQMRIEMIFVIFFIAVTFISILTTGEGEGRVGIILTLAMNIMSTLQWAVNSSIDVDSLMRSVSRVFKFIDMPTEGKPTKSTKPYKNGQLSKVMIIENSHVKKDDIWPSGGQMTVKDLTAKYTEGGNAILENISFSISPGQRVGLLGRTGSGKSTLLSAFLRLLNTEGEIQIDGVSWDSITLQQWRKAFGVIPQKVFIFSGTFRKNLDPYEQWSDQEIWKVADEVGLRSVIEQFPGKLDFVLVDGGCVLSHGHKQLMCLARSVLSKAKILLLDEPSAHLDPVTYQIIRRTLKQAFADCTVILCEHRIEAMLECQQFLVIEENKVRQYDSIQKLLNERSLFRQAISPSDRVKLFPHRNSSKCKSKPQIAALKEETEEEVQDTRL
# procedure summary: Cell Surface Expression-Horse Radish Peroxidase (CSE-HRP) assay
# Type: cell-based
# experimental context: CFBE41o-F508delCFTR-HRP cells; maximum at any tested concentration, normalized to on-plate positive control (3 μM) and DMSO
property label: Maximum % activity

- C[C@H]1C[C@@H](NC(=O)C2(c3ccc4c(c3)OC(F)(F)O4)CC2)C[C@@H](c2ccc(C(=O)O)cc2)O1 (single isomer, unassigned) [Example 58]: 63%
- COc1cccc([C@@H]2C[C@H](NC(=O)C3(c4ccc5c(c4)OC(F)(F)O5)CC3)C[C@H](c3cccc(C(=O)O)c3)O2)c1 (single isomer, unassigned) [Example 74]: 89%
- O=C(O)c1ccc([C@H]2C[C@H](NC(=O)C3(c4ccc5c(c4)OC(F)(F)O5)CC3)C[C@@H](c3ccccc3)O2)c(F)c1 (racemic) [Example 61]: 82%
